List of melting point values.

**Q:** Value lookup for melting point; key = COc1ccc2c(c1)c(Cc1cc(=O)n(-c3cccc(C(F)(F)F)c3)[nH]1)c(C)n2C(=O)c1ccccc1
**A:** 60 to 64.5 °C

----------
MEASURE: melting point

The cases that follow already have their melting point on record.
In [3]: df
Out[3]:
                                   compound        measure   result_value
0  Cc1cc(C)cc(-c2[nH]c3ccc(C(C)(C)C(=O)O)cc3c2CCN(CCCCc2ccc(NS(C)(=O)=O)cc2)C(=O)OCc2ccccc2)c1  melting point       > 102 °C
1  O=C(O)Cc1nn(Cc2nc3cc(F)cc(F)c3s2)c(=O)c2ccccc12  melting point         178 °C
2  CCOC(=O)C(Cc1ccc(S(C)=O)cc1)(NC(C)=O)C(=O)OCC (stereo unspecified)  melting point  135 to 136 °C
3  CC(C)[C@H]1[C@@H](O)CC(=O)N1c1ccc(C#N)c(Cl)c1  melting point  100 to 102 °C
4  COCCOCCCn1c(C=O)c(Br)c2c3c(c(-c4ccccc4Cl)cc21)C(=O)NC3=O  melting point  168 to 169 °C

**Q:** Value lookup for melting point; key = CC(Cn1ccc(C(F)(F)F)n1)n1nnc2cc3c(=O)n(C(C)Cn4ncnn4)nnc3cc2c1=O (stereo unspecified)
**A:** 95 to 97 °C

**Q:** Now try Cc1nc2c(N)cc(Br)cc2n1O .
**A:** 257 to 258 °C

**Q:** Now try CCOC(=O)C1CCCN(C(=O)/C=C/c2ccc(Sc3ccc4c(c3)OCCO4)c([N+](=O)[O-])c2)C1 (stereo unspecified) .
**A:** 73 to 75 °C

**Q:** Now try CCCCC(=N)NC(=O)Nc1ccc(Cl)c(Cl)c1 .
**A:** 177 to 179 °C

**Q:** Now try CCC(=O)Oc1ccc(NCc2c(F)c(F)c(C(F)(F)F)c(F)c2F)cc1C(=O)O .
**A:** 188 to 191 °C

**Q:** Now try Cc1nc2cccnc2c(O)c1C(=O)c1ccccc1 .
**A:** > 260 °C

----------
MEASURE: melting point

The cases that follow already have their melting point on record.
In [3]: df
Out[3]:
                                   compound   result_value
0        O=Cc1cc([N+](=O)[O-])ccc1-c1ccccc1        79.5 °C
1     Brc1ccc(-c2cn([C@H]3CN4CCC3CC4)nn2)s1         146 °C
2  OCC1Cc2c(F)cccc2OC1CO (centres undefined)   99 to 101 °C
3             Nc1cccc(OCCN2CCc3ccccc3C2)c1N    76 to 77 °C
4                   O=C(O)CCCCc1ccc2cncn2c1  168 to 171 °C

**Q:** Value lookup for melting point; key = CN(C)c1ncc(C(=O)N2CCOC(c3cccc(O)c3)C2)c(-c2ccccc2)n1 (centres undefined)
**A:** 140 °C

**Q:** Now try Cn1nc2cccc(Cl)c2c1S(N)(=O)=O .
**A:** 173 to 175 °C

**Q:** Now try Cc1c(N)noc1C(F)(F)F .
**A:** 34.5 to 36 °C

**Q:** Now try C=CCNC(=O)Nc1ccc([N+](=O)[O-])cc1O .
**A:** 135 to 136 °C

**Q:** Now try O=C(O)CCCc1cc2nc(Cl)ccc2n1S(=O)(=O)c1ccc(C(F)(F)F)cc1 .
**A:** 185 °C

**Q:** Now try Oc1cccc(-c2cc3n(n2)-c2ccccc2CC3)c1 .
**A:** 172 to 175 °C

**Q:** Now try COc1cc(C(C)C)c2c(c1)S(=O)(=O)N(COC(=O)c1ccsc1)C2=O .
**A:** 125 to 127 °C

**Q:** Now try COc1ccc2cc(C3=CCC4(CC3)CCN(C)CC4)ccc2c1 .
**A:** 147 to 150 °C

**Q:** Now try COC1CCN(S(=O)(=O)c2ccc(S(N)(=O)=O)cc2)CC1 .
**A:** 153 to 154 °C

**Q:** Now try NC(=O)/C=C/c1ccc(F)cc1 .
**A:** 130 °C
